Listing: EC50 of selected molecules
target_entity: mGluR4 (UniProt Q14833)
method_notes: mGluR4 potentiation assay (fluorescence, Ca2+ or thallium/GIRK readout; EC20 agonist)
condition_details: half maximal effective concentration for mGluR4 potentiation; species of receptor not given
From the text: The disclosed compounds and compositions can be evaluated for their ability to act as a potentiator of metabotropic glutamate receptor activity, in particular mGluR4 activity, by any suitable known methodology known in the art. […] The cells were loaded with either a Ca2+-sensitive fluorescent dye or the thallium responsive dye and the plates were washed and placed into a suitable kinetic plate reader. […]
# number only, unit nM dropped from output

Check out these entries, answers already filled in.
# molecule, EC50 / nM
rows = [
    ("O=C(Nc1ccc(N2C(=O)C3CCCCN3C2=O)c(Cl)c1)c1ncccc1F (centres unmarked)", 3310),
    ("O=C(Nc1ccc(N2C(=O)C3CCCCN3C2=S)c(Cl)c1)c1ccccn1 (centres unmarked)", 367),
]

Request: Any idea what EC50 came out for O=C(Nc1ccc(N2C(=O)C3COCCN3C2=S)c(Cl)c1)c1nccs1 (centres unmarked) on mGluR4 (UniProt Q14833)?
Response: 1170

Request: Any idea what EC50 came out for CC12CCCCN1C(=S)N(c1ccc(NC(=O)c3cnccn3)cc1Cl)C2=O (centres unmarked) on mGluR4 (UniProt Q14833)?
Response: 1910

###

target_entity: UniProtKB Q14833
method_notes: mGluR4 potentiation assay (fluorescence, Ca2+ or thallium/GIRK readout; EC20 agonist)
condition_details: half maximal effective concentration for mGluR4 potentiation; species of receptor not given
Listing: pEC50 of selected compounds
pEC50 field: float, defined as -log10 of concentration (mol/L).

Check out these entries, answers already filled in.
# compound, pEC50
records = [
    ("O=C(Nc1ccc(N2C(=O)C3CS(=O)(=O)CCN3C2=O)c(Cl)c1)c1ccccn1 (stereo not shown)", 5.52),
    ("C[C@@]1(Cc2ccccc2)NC(=O)N(c2ccc(NC(=O)c3ncc(F)cc3F)cc2Cl)C1=O", 5.53),
    ("CC12CCCCN1C(=O)N(c1ccc(NC(=O)c3ccccn3)cc1Cl)C2=O (stereo not shown)", 6.36),
    ("O=C(Nc1ccc(N2C(=O)N[C@@H](c3ccccc3)C2=O)c(Cl)c1)c1ccccn1", 6.42),
    ("CC12CCCCN1C(=O)N(c1ccc(NC(=O)c3nccs3)cc1Cl)C2=O (stereo not shown)", 5.79),
]

Request: pEC50 lookup needed for O=C(Nc1ccc(N2C(=O)C3COCCN3C2=S)c(Cl)c1)c1cccs1 (stereo not shown) , thanks.
Response: 5.07

Request: pEC50 lookup needed for CC12CCCCN1C(=S)N(c1ccc(NC(=O)c3ncccc3F)cc1Cl)C2=O (stereo not shown) , thanks.
Response: 6.19

Request: pEC50 lookup needed for O=C(Nc1ccc(N2C(=O)C3CCCCN3C2=O)c(Cl)c1)c1cccc(F)n1 (stereo not shown) , thanks.
Response: 5.78

Request: pEC50 lookup needed for CC12CCCCN1C(=S)N(c1ccc(NC(=O)c3cscn3)cc1Cl)C2=O (stereo not shown) , thanks.
Response: 5.98

Request: pEC50 lookup needed for C[C@@]1(Cc2ccc(F)cc2)NC(=O)N(c2ccc(NC(=O)c3ccccn3)cc2Cl)C1=O , thanks.
Response: 6.47

Request: pEC50 lookup needed for CC12CCCCN1C(=S)N(c1ccc(NC(=O)c3cccnn3)cc1Cl)C2=O (stereo not shown) , thanks.
Response: 5.72

Request: pEC50 lookup needed for CC12CCCCN1C(=S)N(c1ccc(NC(=O)c3cccc(Cl)n3)cc1Cl)C2=O (stereo not shown) , thanks.
Response: 5.62

Request: pEC50 lookup needed for C[C@@]1(Cc2ccccc2)NC(=O)N(c2ccc(NC(=O)c3ccccn3)cc2Cl)C1=O , thanks.
Response: 6.22
